Hey, just so you know, these numbers are from patent US20230265151A1.

TEST_SYSTEM: human GLP-1 receptor (human, UniProt P43220 24-463)
TEST_NAME: cell-based or functional assay
*1 amine or outer side, *2 acyl side, *3 side chain or, on linkers, in order; H or OH if unused. Where no end group is shown, it is not given here. Side-chain parts run from the residue outwards. [ ]: non-standard residue; d: D form. The star is where a group is joined. αMePhe(2-F) = C[C@](N)(Cc1ccccc1F)C(=O)O; γGlu = O=C(O)[C@H](CCC(=O)[*:2])N[*:1]; C14 diacid = O=C(O)CCCCCCCCCCCCC(=O)*; αMeY = C[C@](N)(Cc1ccc(O)cc1)C(=O)O; αMeL = CC(C)C[C@](C)(N)C(=O)O; Orn = NCCC[C@H](N)C(=O)O; AEEA = NCCOCCOCC(=O)O; Aib = CC(C)(N)C(=O)O
ENDPOINT: cAMP Emax (1.0% HSA) (%)

[
  {
    "BINDER": "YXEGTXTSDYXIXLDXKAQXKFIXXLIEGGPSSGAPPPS (Y-Aib-EGT-αMeF(2F)-TSDY-Aib-I-αMeL-LD-Orn-K((2-[2-(2-Amino-ethoxy)-ethoxy]-acetyl)2-(γ-Glu)-(10-(4-carboxyphenoxy)decanoyl))AQ-Aib-K((2-[2-(2-Amino-ethoxy)-ethoxy]-acetyl)2-(γ-Glu)-(10-(4-carboxyphenoxy)decanoyl))FI-(D-Glu)-αMeY-LIEGGPSSGAPPPS-NH2) [Example 236]",
    "ENDPOINT": "cAMP Emax (1.0% HSA)",
    "ENDPOINT_VALUE": 125
  },
  {
    "BINDER": "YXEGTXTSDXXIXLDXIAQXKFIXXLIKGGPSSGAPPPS (Y-Aib-EGT-αMeF(2F)-TSD-4Pal-Aib-I-αMeL-LD-Orn-IAQ-Aib-K(2-[2-(2-Amino-ethoxy)-ethoxy]-acetyl)2-(γ-Glu)-(11-(4-carboxyphenoxy)undecanoyl)FI-(D-Glu)-αMeY-LIK((2-[2-(2-Amino-ethoxy)-ethoxy]-acetyl)2-(γ-Glu)-(11-(4-carboxyphenoxy)undecanoyl)GGPSSGAPPPS-NH2)) [Example 331]",
    "ENDPOINT": "cAMP Emax (1.0% HSA)",
    "ENDPOINT_VALUE": 114
  },
  {
    "BINDER": "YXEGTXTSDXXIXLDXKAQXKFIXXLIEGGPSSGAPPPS (Y-Aib-EGT-αMeF(2F)-TSD-4Pal-Aib-I-αMeL-LD-Orn-K((2-[2-(2-Amino-ethoxy)-ethoxy]-acetyl)2-(γ-Glu)-(10-(4-carboxyphenoxy)decanoyl))AQ-Aib-K((2-[2-(2-Amino-ethoxy)-ethoxy]-acetyl)2-(γ-Glu)-(10-(4-carboxyphenoxy)decanoyl))FI-(D-Glu)-αMeY-LIEGGPSSGAPPPS-NH2) [Example 243]",
    "ENDPOINT": "cAMP Emax (1.0% HSA)",
    "ENDPOINT_VALUE": 114
  },
  {
    "BINDER": "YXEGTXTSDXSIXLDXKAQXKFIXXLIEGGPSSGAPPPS (Y-Aib-EGT-αMeF(2F)-TSD-OMeY-SI-αMeL-LD-Orn-K((2-[2-(2-Amino-ethoxy)-ethoxy]-acetyl)2-(γ-Glu)-CO-(CH2)10-CH3)AQ-Aib-K((2-[2-(2-Amino-ethoxy)-ethoxy]-acetyl)2-(γ-Glu)-CO-(CH2)10-CH3)FI-(D-Glu)-αMeY-LIEGGPSSGAPPPS-NH2) [Example 289]",
    "ENDPOINT": "cAMP Emax (1.0% HSA)",
    "ENDPOINT_VALUE": 170
  },
  {
    "BINDER": "Y[Aib]EGT[αMePhe(2-F)]TSDV[Aib]I[αMeL]LD[Orn]K([AEEA-AEEA-γGlu-C14 diacid])AQ[Aib][Orn]FI[dE][αMeY]LIK([AEEA-AEEA-γGlu-C14 diacid])GGPSSGAPPPS-NH2 [Example 350]",
    "ENDPOINT": "cAMP Emax (1.0% HSA)",
    "ENDPOINT_VALUE": 91.4
  }
]
